# subject_of_test: T1, thyroid stimulating hormone receptor (full length human TSHR) (human, UniProt P16473 22-764)
# T1 construct: Full length TSHR coated onto plastic tubes (TSHR coated tubes, as in WO2004/050708A2); also called TSH receptor
# method_description: competitor ^125I-K1-70 IgG, TSHR coated tubes; 100 µg/mL in assay buffer
# Description: Binding inhibition assays were carried out using TSHR coated tubes as described in WO2004/050708A2. […] After aspiration, the tubes were washed and 100 μL of ¹²⁵I-labelled protein (5×10⁴ cpm) added and incubated for 1 hour at room temperature with shaking. The tubes were then aspirated, washed and counted in a gamma counter. Inhibition of labelled protein binding was calculated as 100×[1−(cpm bound in the presence of test material/cpm bound in the presence of control material)].
Catalogue of Inhibition of binding (%) readings, one per entry.
Write it as a number; the unit % goes unstated.

Req: What measured Inhibition of binding (%) goes with K1-70 Fab (Fab, V domains shown) VH: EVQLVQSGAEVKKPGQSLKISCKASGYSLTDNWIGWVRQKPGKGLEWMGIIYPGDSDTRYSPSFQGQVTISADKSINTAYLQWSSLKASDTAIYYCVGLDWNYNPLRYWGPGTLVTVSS VL: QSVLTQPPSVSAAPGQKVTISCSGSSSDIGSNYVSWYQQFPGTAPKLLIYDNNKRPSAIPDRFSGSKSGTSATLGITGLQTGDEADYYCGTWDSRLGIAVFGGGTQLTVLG ?
Resp: 91.5

Req: How about K1-18 IgG (antibody, V domains shown, Human IgG1 kappa purified from hetero-hybridoma supernatant; it is not part of the secreted protein; also called human monoclonal TSHR autoantibody K1-18 (stimulating)) VH: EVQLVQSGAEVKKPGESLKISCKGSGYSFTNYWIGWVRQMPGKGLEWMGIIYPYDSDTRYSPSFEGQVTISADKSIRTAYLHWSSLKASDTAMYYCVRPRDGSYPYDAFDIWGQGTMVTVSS VL: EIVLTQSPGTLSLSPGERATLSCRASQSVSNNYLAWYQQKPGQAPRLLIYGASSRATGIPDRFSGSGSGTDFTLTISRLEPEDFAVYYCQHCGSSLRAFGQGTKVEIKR ?
Resp: 92.9

Please look at the following binder next.
Req: What measured Inhibition of binding (%) goes with K1-70 IgG (antibody, V domains shown, Human IgG1 lambda purified from hetero-hybridoma supernatant) VH: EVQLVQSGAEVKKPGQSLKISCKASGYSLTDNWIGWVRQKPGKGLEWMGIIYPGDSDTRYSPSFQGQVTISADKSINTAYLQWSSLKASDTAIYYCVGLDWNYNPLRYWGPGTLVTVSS VL: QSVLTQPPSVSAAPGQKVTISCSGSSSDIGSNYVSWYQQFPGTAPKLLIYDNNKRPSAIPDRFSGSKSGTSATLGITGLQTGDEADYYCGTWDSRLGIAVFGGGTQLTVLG ?
Resp: 93.8
